# protocol.notes: recombinant UMI read abundance after kanamycin selection (control-corrected) (log10(CPM+1)); higher = more efficient recombination; extreme values may be limits of the assay; sequences stand for … in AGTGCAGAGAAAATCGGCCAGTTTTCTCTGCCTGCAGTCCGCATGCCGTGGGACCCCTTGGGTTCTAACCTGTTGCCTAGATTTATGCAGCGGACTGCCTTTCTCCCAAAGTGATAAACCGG…AGGTTGGTTTCACT; site = the 11-nt donor;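 also: IS621 bridge recombinase in Escherichia coli cells against a fixed T5 target plasmid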
parameter: recombinant UMI read abundance (log10)
Lab note: write the figure by itself, no unit.

// below: answered sequences
seq: GCTATTGCATGGACCGGTTTTCCCGGTAATCCGTATTTGCC (site GCTAGTGCTGG)
recombinant UMI read abundance (log10): 0.00747
--
seq: AGGCTTTCATGGACCGGTTTTCCCGGTAATCCGTATTTGAC (site AGGCTTTCTGT)
recombinant UMI read abundance (log10): 0.502
--
seq: ACCCTTTCATGGACCGGTTTTCCCGGTAATCCGTATTTGAC (site AGCCTTTCTGT)
recombinant UMI read abundance (log10): 0
--
seq: AGAACAACATGGACCGGTTTTCCCGGTAATCCGTATTTGCT (site TTTGTCCCTCC)
recombinant UMI read abundance (log10): 0.00956

Pending sequence:
Recorded result, ATGTTTGCATGGACCGGTTTTCCCGGTAATCCGTATTTGAT (site ATGTTTGCTAT) , recombinant UMI read abundance (log10): 2.16
